log10(EC50) reference
target: Nucleic Acid; assay: Inhibition of fluorescein labeled Tat-peptide binding to HIV1 TAR RNA after 60 mins by FRET assay; format: nucleic-acid assay, Human immunodeficiency virus 1
property-measured: log10(EC50) (log10 of the value in nM)

# smiles-entry, log10(EC50)
rows = [
    ("NCCCC[C@@H](CN[C@H](CNCCC(N)=O)Cc1ccc(O)cc1)NC[C@H](Cc1ccc(O)cc1)NC[C@H](CCCCN)NC[C@H](Cc1c[nH]c2ccccc12)NC[C@@H](N)Cc1ccc(O)cc1", 2.38),
    ("C[C@@H](CN[C@H](CN[C@H](CN[C@H](CNCCC(N)=O)Cc1ccc(O)cc1)Cc1ccc(O)cc1)Cc1ccc(O)cc1)NC[C@H](Cc1ccc(O)cc1)NC[C@H](Cc1ccc(O)cc1)NC[C@@H](N)Cc1ccc(O)cc1", 2.70),
    ("NCCCC[C@@H](CN[C@H](CN[C@H](CN[C@H](CNCCC(N)=O)Cc1ccc(O)cc1)Cc1ccc(O)cc1)Cc1ccc(O)cc1)NC[C@H](Cc1c[nH]c2ccccc12)NC[C@@H](N)Cc1ccc(O)cc1", 2.48),
    ("C[C@H](N)CN[C@@H](C)CN[C@@H](C)CN[C@@H](C)CN[C@@H](C)CN[C@H](CNCCC(N)=O)Cc1ccc(O)cc1", 4.14),
    ("NC(=O)CCNC[C@H](Cc1ccc(O)cc1)NC[C@H](Cc1ccc(O)cc1)NC[C@H](Cc1ccc(O)cc1)NC[C@H](Cc1ccc(O)cc1)NC[C@H](Cc1ccc(O)cc1)NC[C@H](Cc1ccc(O)cc1)NC[C@H](Cc1ccc(O)cc1)NC[C@@H](N)Cc1ccc(O)cc1", 2.26),
]

----------
assay: Cytotoxicity in human HeLa cells transfected with HIV Tat-LTR by FITC-conjugated DAPI staining by fluorescence microscopy; format: cell-based; settings: read-out: TC50 (the source's name)
CC50 reference
property-measured: CC50 (µM)

# smiles-entry, property-measured, unit-of-measure, readout-relation, observed-value
rows = [
    ("NC(=O)CCNC[C@H](Cc1ccc(O)cc1)NC[C@H](Cc1ccc(O)cc1)NC[C@H](Cc1ccc(O)cc1)NC[C@H](Cc1ccc(O)cc1)NC[C@H](Cc1ccc(O)cc1)NC[C@@H](N)Cc1ccc(O)cc1", "CC50", "µM", ">", 100),
    ("C[C@@H](CN[C@H](CN[C@H](CN[C@H](CNCCC(N)=O)Cc1ccc(O)cc1)Cc1ccc(O)cc1)Cc1ccc(O)cc1)NC[C@H](Cc1ccc(O)cc1)NC[C@H](Cc1ccc(O)cc1)NC[C@H](Cc1ccc(O)cc1)NC[C@@H](N)Cc1ccc(O)cc1", "CC50", "µM", "=", 2.4),
    ("NCCCC[C@@H](CN[C@H](CNCCC(N)=O)Cc1ccc(O)cc1)NC[C@H](Cc1ccc(O)cc1)NC[C@H](CCCCN)NC[C@H](Cc1ccc(O)cc1)NC[C@@H](N)Cc1ccc(O)cc1", "CC50", "µM", "=", 38),
]

----------
tested on: Nucleic Acid; test: Induction of aggregation of 32P labeled HIV1 TAR RNA after 60 mins by native gel electrophoresis; type: nucleic-acid assay, Human immunodeficiency virus 1
EC50 reference

# smiles-entry, assayed-system, EC50
measured = [
    ("NC(=O)CCNC[C@H](Cc1ccc(O)cc1)NC[C@H](Cc1ccc(O)cc1)NC[C@H](Cc1ccc(O)cc1)NC[C@@H](N)Cc1ccc(O)cc1", "Nucleic Acid", "450 µM"),
    ("NC(=O)CCNC[C@H](Cc1ccc(O)cc1)NC[C@H](Cc1ccc(O)cc1)NC[C@H](Cc1ccc(O)cc1)NC[C@H](Cc1ccc(O)cc1)NC[C@H](Cc1ccc(O)cc1)NC[C@@H](N)Cc1ccc(O)cc1", "Nucleic Acid", "40 µM"),
    ("NC(=O)CCNC[C@H](Cc1ccc(O)cc1)NC[C@H](Cc1ccc(O)cc1)NC[C@@H](N)Cc1ccc(O)cc1", "Nucleic Acid", "490 µM"),
    ("NC(=O)CCNC[C@H](Cc1ccc(O)cc1)NC[C@H](Cc1ccc(O)cc1)NC[C@H](Cc1ccc(O)cc1)NC[C@H](Cc1ccc(O)cc1)NC[C@@H](N)Cc1ccc(O)cc1", "Nucleic Acid", "220 µM"),
]

----------
EC50 reference
target: Nucleic Acid; assay: Inhibition of fluorescein labeled Tat-peptide binding to HIV1 TAR RNA after 60 mins by FRET assay; type: nucleic-acid assay, Human immunodeficiency virus 1
property-measured: EC50 (nM)

# smiles-entry, assayed-system, observed-value
measured = [
    ("C[C@@H](CN[C@H](CN[C@H](CN[C@H](CN[C@H](CNCCC(N)=O)Cc1ccc(O)cc1)Cc1ccc(O)cc1)Cc1ccc(O)cc1)Cc1ccc(O)cc1)NC[C@@H](N)Cc1ccc(O)cc1", "Nucleic Acid", 3940),
    ("NC(=O)CCNC[C@H](Cc1ccc(O)cc1)NC[C@H](Cc1ccc(O)cc1)NC[C@H](Cc1ccc(O)cc1)NC[C@H](Cc1ccc(O)cc1)NC[C@H](Cc1ccc(O)cc1)NC[C@H](Cc1ccc(O)cc1)NC[C@@H](N)Cc1ccc(O)cc1", "Nucleic Acid", 470),
    ("NC(=O)CCNC[C@H](Cc1ccc(O)cc1)NC[C@H](Cc1ccc(O)cc1)NC[C@H](Cc1ccc(O)cc1)NC[C@H](Cc1ccc(O)cc1)NC[C@H](Cc1ccc(O)cc1)NC[C@@H](N)Cc1ccc(O)cc1", "Nucleic Acid", 1700),
]

----------
CC50 reference
assay: Cytotoxicity in human HeLa cells transfected with HIV Rev-LTR by FITC-conjugated DAPI staining by fluorescence microscopy; format: cell-based; conditions: read-out: TC50 (the source's name)

# smiles-entry, CC50
records = [
    ("NC(=O)CCNC[C@H](Cc1ccc(O)cc1)NC[C@H](Cc1ccc(O)cc1)NC[C@@H](N)Cc1ccc(O)cc1", "> 100 µM"),
    ("C[C@@H](CN[C@H](CN[C@H](CN[C@H](CNCCC(N)=O)Cc1ccc(O)cc1)Cc1ccc(O)cc1)Cc1ccc(O)cc1)NC[C@H](Cc1ccc(O)cc1)NC[C@@H](N)Cc1ccc(O)cc1", "> 100 µM"),
    ("NC(=O)CCNC[C@H](Cc1ccc(O)cc1)NC[C@H](Cc1ccc(O)cc1)NC[C@H](Cc1ccc(O)cc1)NC[C@H](Cc1ccc(O)cc1)NC[C@@H](N)Cc1ccc(O)cc1", "> 100 µM"),
    ("C[C@@H](CN[C@H](CN[C@H](CN[C@H](CNCCC(N)=O)Cc1ccc(O)cc1)Cc1ccc(O)cc1)Cc1ccc(O)cc1)NC[C@H](Cc1ccc(O)cc1)NC[C@H](Cc1ccc(O)cc1)NC[C@@H](N)Cc1ccc(O)cc1", "> 100 µM"),
    ("NC(=O)CCNC[C@H](Cc1ccc(O)cc1)NC[C@H](Cc1ccc(O)cc1)NC[C@H](Cc1ccc(O)cc1)NC[C@H](Cc1ccc(O)cc1)NC[C@H](Cc1ccc(O)cc1)NC[C@@H](N)Cc1ccc(O)cc1", "> 100 µM"),
    ("NCCCC[C@@H](CN[C@H](CN[C@H](CN[C@H](CNCCC(N)=O)Cc1ccc(O)cc1)Cc1ccc(O)cc1)Cc1ccc(O)cc1)NC[C@H](Cc1ccc(O)cc1)NC[C@@H](N)Cc1ccc(O)cc1", "> 100 µM"),
]

----------
experiment: Cytotoxicity in human HeLa cells transfected with HIV Tat-LTR by FITC-conjugated DAPI staining by fluorescence microscopy; assay type: cell-based; details: read-out: TC50 (the source's name)

# smiles-entry, CC50
rows = [
    ("C[C@@H](CN[C@H](CN[C@H](CN[C@H](CNCCC(N)=O)Cc1ccc(O)cc1)Cc1ccc(O)cc1)Cc1ccc(O)cc1)NC[C@H](Cc1ccc(O)cc1)NC[C@@H](N)Cc1ccc(O)cc1", "> 100 µM"),
    ("NCCCC[C@@H](CN[C@H](CN[C@H](CN[C@H](CNCCC(N)=O)Cc1ccc(O)cc1)Cc1ccc(O)cc1)Cc1ccc(O)cc1)NC[C@H](Cc1ccc(O)cc1)NC[C@@H](N)Cc1ccc(O)cc1", "> 100 µM"),
    ("NC(=O)CCNC[C@H](Cc1ccc(O)cc1)NC[C@H](Cc1ccc(O)cc1)NC[C@@H](N)Cc1ccc(O)cc1", "> 100 µM"),
]

----------
assay: Cytotoxicity in human HeLa cells transfected with HIV Tat-LTR by FITC-conjugated DAPI staining by fluorescence microscopy; type: cell-based; details: read-out: TC50 (the source's name)

# smiles-entry, CC50
measured = [
    ("NC(=O)CCNC[C@H](Cc1ccc(O)cc1)NC[C@H](Cc1ccc(O)cc1)NC[C@H](Cc1ccc(O)cc1)NC[C@H](Cc1ccc(O)cc1)NC[C@@H](N)Cc1ccc(O)cc1", "> 100 µM"),
    ("NCCCC[C@@H](CN[C@H](CNCCC(N)=O)Cc1ccc(O)cc1)NC[C@H](Cc1ccc(O)cc1)NC[C@H](CCCCN)NC[C@H](Cc1c[nH]c2ccccc12)NC[C@@H](N)Cc1ccc(O)cc1", "12 µM"),
    ("C[C@@H](CN[C@H](CN[C@H](CN[C@H](CNCCC(N)=O)Cc1ccc(O)cc1)Cc1ccc(O)cc1)Cc1ccc(O)cc1)NC[C@H](Cc1ccc(O)cc1)NC[C@H](Cc1ccc(O)cc1)NC[C@@H](N)Cc1ccc(O)cc1", "> 100 µM"),
]
